Tested on: Zymoseptoria tritici (SEPTTR-184)
assay text: Efficacy of target gene fragments (MgCytB dsRNA tiles) on wheat plants, SEPTTR-184
Type: in vivo
Design: scale not given here
details: 12.5 ppm; 1DP (preventative)
measurement name: Average of 2 trials SEPTTR-184 1DP
Please reply with the number alone, leaving off any unit.

input: Name the reported Average of 2 trials SEPTTR-184 1DP value associated with the molecule MgCytB-T6: 258 bp dsRNA of Zymoseptoria CytB region T6, location 775-1032 (SEQ ID NO:9) (nucleic acid, listed as Zymoseptoria tritici, complementary strand of dsRNA) GTTATGGCTAACCCTATGCAAACTCCACCTGCTATAGTGCCTGAATGATATTTATTACCTTTCTACGCTATACTAAGATCAATACCTAACAAACTATTAGGTGTGATCGCAATGTTTTCTGCTATATTGATTATAATGATAATGCCAATTACCGATTTAGGTAGAAGTAGAGGATTACAGTTTAGACCTTTAAGCAAGATCACATTTTACATATTTGTTGCTAACTTCTTAGTATTAATGCAATTAGGTGCTAATCAC
output: 77
